measurement.target: UniProt:O14684
Sequence (O14684 whole entry): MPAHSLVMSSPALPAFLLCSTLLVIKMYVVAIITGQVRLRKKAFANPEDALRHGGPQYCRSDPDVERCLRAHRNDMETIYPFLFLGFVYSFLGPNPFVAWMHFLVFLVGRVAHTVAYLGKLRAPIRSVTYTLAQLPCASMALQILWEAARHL
experiment.summary: Inhibition of human recombinant mPGES-1 expressed in CHO cells using PGH2 as substrate incubated for 10 mins prior to substrate addition measured after 1 min
Friendly reminder: IC50 below 60 nM is Fulfilled, at or above is Not fulfilled.

Would you please look over these solved cases?
[
  {
    "compound.structure": "CC(C)C(=O)NCc1ccc(Cl)c(-c2nc3cc(C4CC4)ccc3c(=O)[nH]2)c1",
    "measurement.target": "UniProt:O14684",
    "class.name": "Fulfilled"
  },
  {
    "compound.structure": "CC(C)C(=O)NCc1ccc(Cl)c(-c2nc3cc(Cl)c(C4CC4)cc3c(=O)[nH]2)c1",
    "measurement.target": "UniProt:O14684",
    "class.name": "Fulfilled"
  },
  {
    "compound.structure": "CC(C)C(=O)NCc1ccc(Cl)c(-c2nc3cc(N4CCC(C(F)(F)F)CC4)ccc3c(=O)[nH]2)c1",
    "measurement.target": "UniProt:O14684",
    "class.name": "Not fulfilled"
  }
]

Could you now look at the following compound, please?
INPUT: API: query returns whether the compound falls strictly under 60 nM in IC50. Query: `CC(=O)O[C@H]1CCN(c2cc3c(=O)[nH]c(-c4cc(CNC(=O)C(C)C)ccc4Cl)nc3cc2Cl)C1`
OUTPUT: Not fulfilled

---

experiment.summary: Stability in rat liver microsomes assessed as compound remaining after 60 mins
Type: ADME
protocol.conditions: read-out: Stability
observable: remaining at 1 h (%)
Numbers only, in %.

INPUT: Please indicate remaining at 1 h recorded for `CC(C)C(=O)NCc1ccc(Cl)c(-c2nc3cc(-c4ccc(C(F)(F)F)cc4)ncc3c(=O)[nH]2)c1`
OUTPUT: 77

---

measurement.target: Prostaglandin E synthase (Homo sapiens)
experiment.summary: Inhibition of mPGES-1 in human A549 cells assessed as inhibition of IL-1beta-induced PGE2 production incubated for 30 mins prior to IL-1beta challenge measured after 18 to 24 hrs
Format: cell-based
For each record, write down the corresponding pIC50.
Answers are plain numbers, as −log10 of the molar value.

[
  {
    "compound.structure": "CC(C)C(=O)NCc1ccc(Cl)c(-c2nc3cc(-c4ccc(C(F)(F)F)nc4)ccc3c(=O)[nH]2)c1",
    "measurement.target": "Prostaglandin E synthase (Homo sapiens)",
    "pIC50": 7.64
  },
  {
    "compound.structure": "CC(C)C(=O)NCc1ccc(Cl)c(-c2nc3nc(-c4ccc(C(F)(F)F)cc4)ccc3c(=O)[nH]2)c1",
    "measurement.target": "Prostaglandin E synthase (Homo sapiens)",
    "pIC50": 7.96
  },
  {
    "compound.structure": "CC(C)C(=O)NCc1ccc(Cl)c(-c2nc3cc(-c4ccc(C(F)(F)F)cc4)ncc3c(=O)[nH]2)c1",
    "measurement.target": "Prostaglandin E synthase (Homo sapiens)",
    "pIC50": 8.30
  },
  {
    "compound.structure": "CC(C)C(=O)NCc1cnc(C(F)F)c(-c2nc3cc(-c4ccc(C(F)(F)F)cc4)ncc3c(=O)[nH]2)c1",
    "measurement.target": "Prostaglandin E synthase (Homo sapiens)",
    "pIC50": 6.95
  }
]

Batch of 2 compounds: report pIC50 for each.
1. CC(C)C(=O)NCc1cnc(C(F)F)c(-c2nc3cc(-c4ccc(C(F)(F)F)cc4)ccc3c(=O)[nH]2)c1
2. CC(C)C(=O)NCc1ccc(Cl)c(-c2nc3cc(-c4ccc(C(F)(F)F)cc4)ccc3c(=O)[nH]2)c1

OUTPUT:
[7.48, 8.00]

---

experiment.summary: AUClast in Sprague-Dawley rat at 10 mg/kg, po
Format: ADME, organism-based
Parameters: time 0 - last, dose 10 mg/kg, route oral
protocol.conditions: plasma
observable: AUC(0-t)
Returns: string containing the number followed by the unit.

INPUT: Find the measured AUC(0-t) of `CC(C)C(=O)NCc1ccc(Cl)c(-c2nc3cc(-c4ccc(C(F)(F)F)cc4)ncc3c(=O)[nH]2)c1` and report it.
OUTPUT: 1230 ng·h/mL

---

measurement.target: Prostaglandin E synthase (Homo sapiens) (UniProt O14684)
experiment.summary: Inhibition of human recombinant mPGES-1 expressed in CHO cells using PGH2 as substrate at 10 uM incubated for 10 mins prior to substrate addition measured after 1 min
Format: cell-based
What inhibition was measured for each of the following?
Numbers only, in %.

[
  {
    "compound.structure": "CC(C)C(=O)NCc1ccc(Cl)c(-c2nc3cc(Cl)c(N4CC[C@H](O)C4)cc3c(=O)[nH]2)c1",
    "observable": "inhibition",
    "value": 91
  }
]

For each of the compounds below, state inhibition.
1. CC(C)C(=O)NCc1ccc(Cl)c(-c2nc3cc(Cl)c(N4CCNC(=O)C4)cc3c(=O)[nH]2)c1
2. CC(C)C(=O)NCc1ccc(Cl)c(-c2nc3cc(Cl)c(N4CC[C@@H](O)C4)cc3c(=O)[nH]2)c1
3. CC(C)C(=O)NCc1ccc(Cl)c(-c2nc3cc(C(N)=O)ccc3c(=O)[nH]2)c1
4. CNC(=O)C1CCN(c2cc3c(=O)[nH]c(-c4cc(CNC(=O)C(C)C)ccc4Cl)nc3cc2Cl)CC1
5. CC(C)C(=O)NCc1ccc(Cl)c(-c2nc3cc(N)ccc3c(=O)[nH]2)c1
6. CC(C)C(=O)NCc1ccc(Cl)c(-c2nc3cc(Cl)c(N4CCN(C)CC4)cc3c(=O)[nH]2)c1

OUTPUT:
1: 79; 2: 95; 3: 16; 4: 76; 5: 70; 6: 75

---

For each of the compounds below, state its pIC50.
measurement.target: Prostaglandin E synthase (Homo sapiens)
experiment.summary: Inhibition of human recombinant mPGES-1 expressed in CHO cells using PGH2 as substrate incubated for 10 mins prior to substrate addition measured after 1 min
Numbers only, as −log10 of the molar value.

Before answering, review these 3 worked examples.
[
  {
    "compound.structure": "CC(C)C(=O)NCc1ccc(Cl)c(-c2nc3cc(Cl)c(N4CC(C(=O)NC(C)(C)C)C4)cc3c(=O)[nH]2)c1",
    "pIC50": 7.23
  },
  {
    "compound.structure": "CC(C)C(=O)NCc1ccc(Cl)c(-c2nc3nc(-c4ccc(C(F)(F)F)cc4)ccc3c(=O)[nH]2)c1",
    "pIC50": 8.00
  },
  {
    "compound.structure": "CC(C)C(=O)NCc1ccc(Cl)c(-c2nc3cc([N+](=O)[O-])ccc3c(=O)[nH]2)c1",
    "pIC50": 7.20
  }
]

Look at each compound and report its pIC50.
1. COc1cc2c(=O)[nH]c(-c3cc(CNC(=O)C(C)C)ccc3Cl)nc2cc1Cl
2. O=C(Nc1ccc2cnn(-c3ccc(Br)cc3)c(=O)c2c1)c1c(F)cccc1Cl
3. CC(C)C(=O)NCc1cnc(C(F)F)c(-c2nc3cc(-c4ccc(C(F)(F)F)cc4)ncc3c(=O)[nH]2)c1
4. CC(C)C(=O)NCc1ccc(Cl)c(-c2nc3cc(Br)ccc3c(=O)[nH]2)c1
5. CC(C)C(=O)NCc1ccc(Cl)c(-c2nc3cc(-c4ccc(C(F)(F)F)cc4)ccc3c(=O)[nH]2)c1
6. CC(C)C(=O)NCc1ccc(Cl)c(-c2nc3cc(Cl)c(N4CCC(C(F)F)CC4)cc3c(=O)[nH]2)c1
7. CC(C)C(=O)NCc1ccc(Cl)c(-c2nc3cc(-c4ccc(C(F)(F)F)cc4)ncc3c(=O)[nH]2)c1

OUTPUT:
[6.95, 6.75, 8.40, 7.44, 8.15, 7.62, 8.30]

# batch: return pIC50 for each of the 3 compounds below
1. CC(C)(C)C(=O)NCc1ccc(Cl)c(C(=O)Nc2ccc3cnn(-c4ccc(C(F)(F)F)cc4)c(=O)c3c2)c1
2. CC(C)C(=O)NCc1ccc(Cl)c(-c2nc3cc(Cl)c(N4CCC(O)CC4)cc3c(=O)[nH]2)c1
3. CC(C)C(=O)NCc1ccc(Cl)c(-c2nc3cc(Cl)c(N4CCOCC4)cc3c(=O)[nH]2)c1

OUTPUT:
1: 8.30; 2: 6.15; 3: 6.58
